molecular target: Cereblon (CRBN) protein (Homo sapiens, UniProt Q96SW2); construct: purchased Eurofins (E3scan service); host or cells: HEK-293; test: CRBN binding affinity, E3scan (Eurofins) competition binding with qPCR read-out; conditions: lower % Ctrl = stronger binding, DMSO = 100 % Ctrl, lenalidomide = 0 % Ctrl

molecule | CRBN binding affinity (% Ctrl @ 5µM)
O=C1CCC(N2Cc3cc(C(=O)c4cc5ccccc5[nH]4)ccc3C2=O)C(=O)N1 (centres unmarked) | A (0 ≤ '% Ctrl' < 0.1)
O=C1CCC(N2Cc3cc(C(=O)N4Cc5cccc6cccc4c56)ccc3C2=O)C(=O)N1 (centres unmarked) | A (0 ≤ '% Ctrl' < 0.1)
O=C1CCC(N2Cc3nc(C(=O)c4ccccc4)ccc3C2=O)C(=O)N1 (centres unmarked) | C (1 ≤ % Ctrl' < 10)
O=C1CCC(N2C(=O)c3ccc(C(=O)c4cc5ccccc5[nH]4)cc3C2=O)C(=O)N1 (centres unmarked) | C (1 ≤ % Ctrl' < 10)
O=C1CCC(N2Cc3cc(C(=O)c4ccc(Nc5ccccc5)cc4)ccc3C2=O)C(=O)N1 (centres unmarked) | A (0 ≤ '% Ctrl' < 0.1)
O=C1CCC(N2Cc3cc(C(=O)n4ncc5ccccc54)ccc3C2=O)C(=O)N1 (centres unmarked) | A (0 ≤ '% Ctrl' < 0.1)
CNc1ccc2cc(C(=O)c3ccc4c(c3)CN(C3CCC(=O)NC3=O)C4=O)[nH]c2c1 (centres unmarked) | A (0 ≤ '% Ctrl' < 0.1)
O=C1CCC(N2Cc3cc(C(=O)C4CCN(Cc5ccccc5)CC4)ccc3C2=O)C(=O)N1 (centres unmarked) | A (0 ≤ '% Ctrl' < 0.1)
O=C1CCC(N2Cc3cc(C(=O)c4cc5ccccc5o4)ccc3C2=O)C(=O)N1 (centres unmarked) | A (0 ≤ '% Ctrl' < 0.1)
O=C1CCC(N2Cc3cc(C(=O)c4ccccc4)ccc3C2=O)C(=O)N1 (centres unmarked) | C (1 ≤ % Ctrl' < 10)
O=C1CCC(N2Cc3cc(C(=O)c4ccccn4)ccc3C2=O)C(=O)N1 (centres unmarked) | A (0 ≤ '% Ctrl' < 0.1)
O=C1CCC(N2Cc3cc(C(=O)c4cccc(-c5ccccc5)c4)ccc3C2=O)C(=O)N1 (centres unmarked) | A (0 ≤ '% Ctrl' < 0.1)
O=C1CCC(N2Cc3cc(C(=O)N4CCCC4)ccc3C2=O)C(=O)N1 (centres unmarked) | A (0 ≤ '% Ctrl' < 0.1)
O=C1CCC(N2Cc3cc(C(=O)c4ccc5cn[nH]c5c4)ccc3C2=O)C(=O)N1 (centres unmarked) | A (0 ≤ '% Ctrl' < 0.1)
O=C1CCC(N2Cc3cc(C(=O)c4cc(-c5ccccc5)c[nH]4)ccc3C2=O)C(=O)N1 (centres unmarked) | A (0 ≤ '% Ctrl' < 0.1)
O=C1CCC(N2Cc3cc(C(=O)c4cn(-c5ccccc5)c5ccccc45)ccc3C2=O)C(=O)N1 (centres unmarked) | A (0 ≤ '% Ctrl' < 0.1)

====

Recorded GI50 values (human multiple myeloma cell line MM.1S) are given below.

compound | GI50
O=C1CCC(N2Cc3cc(C(=O)c4cc5ccccc5[nH]4)ccc3C2=O)C(=O)N1 (centres unmarked) | ≤ 100 nM
O=C1CCC(N2Cc3cc(C(=O)c4ccc5ccccc5c4)ccc3C2=O)C(=O)N1 (centres unmarked) | > 10000 nM
O=C1CCC(N2Cc3cc(C(=O)c4cc5cc(F)ccc5[nH]4)ccc3C2=O)C(=O)N1 (centres unmarked) | ≤ 100 nM
O=C1CCC(N2Cc3cc(C(=O)c4ccc5ccccc5n4)ccc3C2=O)C(=O)N1 (centres unmarked) | > 10000 nM
Cn1c(C(=O)c2ccc3c(c2)CN(C2CCC(=O)NC2=O)C3=O)cc2ccccc21 (centres unmarked) | ≤ 100 nM
O=C1CCC(N2Cc3cc(C(=O)c4ccc5c(c4)OCO5)ccc3C2=O)C(=O)N1 (centres unmarked) | ≤ 100 nM
O=C1CCC(N2Cc3cc(C(=O)c4cc5ccccc5o4)ccc3C2=O)C(=O)N1 (centres unmarked) | ≤ 100 nM
O=C1CCC(N2Cc3cc(C(=O)c4ccc(Nc5ccccc5)cc4)ccc3C2=O)C(=O)N1 (centres unmarked) | ≤ 100 nM
O=C1CCC(N2Cc3cc(C(=O)c4cc5ccc(Cl)cc5[nH]4)ccc3C2=O)C(=O)N1 (centres unmarked) | ≤ 100 nM
CC(C)(C)c1ccc(C(=O)c2ccc3c(c2)CN(C2CCC(=O)NC2=O)C3=O)cc1 (centres unmarked) | ≤ 100 nM
O=C1CCC(N2Cc3cc(C(=O)c4cc(-c5ccccc5)c[nH]4)ccc3C2=O)C(=O)N1 (centres unmarked) | ≤ 100 nM
O=C1CCC(N2Cc3cc(C(=O)c4ccc(O)cc4)ccc3C2=O)C(=O)N1 (centres unmarked) | ≤ 100 nM
O=C1CCC(N2Cc3cc(C(=O)c4ccc5cn[nH]c5c4)ccc3C2=O)C(=O)N1 (centres unmarked) | 1000 to 10000 nM
O=C1CCC(N2Cc3cc(C(=O)c4n[nH]c5ccccc45)ccc3C2=O)C(=O)N1 (centres unmarked) | ≤ 100 nM
O=C1CCC(N2Cc3cc(C(=O)c4cc5ccc(F)cc5[nH]4)ccc3C2=O)C(=O)N1 (centres unmarked) | ≤ 100 nM
O=C1CCC(N2Cc3cc(C(=O)c4c[nH]c5cc(Cl)ccc45)ccc3C2=O)C(=O)N1 (centres unmarked) | ≤ 100 nM
CN(C)c1ccc(C(=O)c2ccc3c(c2)CN(C2CCC(=O)NC2=O)C3=O)cc1 (centres unmarked) | ≤ 100 nM

====

target: Cereblon (CRBN) protein (Homo sapiens); construct: purchased Eurofins (E3scan service); host or cells: HEK-293; assay: CRBN binding affinity, E3scan (Eurofins) competition binding with qPCR read-out; details: lower % Ctrl = stronger binding, DMSO = 100 % Ctrl, lenalidomide = 0 % Ctrl
endpoint label: CRBN binding affinity (% Ctrl @ 5µM)

molecule | result
O=C1CCC(N2Cc3cc(C(=O)c4cc(-c5ccccc5)cs4)ccc3C2=O)C(=O)N1 (centres unmarked) | A (0 ≤ '% Ctrl' < 0.1)
O=C1CCC(N2Cc3cc(C(=O)N4Cc5ccccc5C4)ccc3C2=O)C(=O)N1 (centres unmarked) | A (0 ≤ '% Ctrl' < 0.1)
O=C1CCC(N2Cc3cc(C(=O)c4cccc(Nc5ccccc5)c4)ccc3C2=O)C(=O)N1 (centres unmarked) | A (0 ≤ '% Ctrl' < 0.1)
O=C1CCC(N2Cc3cc(C(=O)c4ccc(-c5ccccc5)[nH]4)ccc3C2=O)C(=O)N1 (centres unmarked) | C (1 ≤ % Ctrl' < 10)
O=C1CCC(N2Cc3cc(C(=O)c4n[nH]c5ccccc45)ccc3C2=O)C(=O)N1 (centres unmarked) | A (0 ≤ '% Ctrl' < 0.1)
O=C1CCC(N2Cc3cc(C(=O)c4coc5ccccc45)ccc3C2=O)C(=O)N1 (centres unmarked) | C (1 ≤ % Ctrl' < 10)
